Biological target: T1, Wild type CD117 expressed on cells (M07e cells, unedited human CD34+ HSPCs) (human, UniProt P10721 26-976)
T1 construct: Endogenous receptor on cells; also called wtCD117; WT CD117
T1 sequence (P10721 26-976 limits assumed): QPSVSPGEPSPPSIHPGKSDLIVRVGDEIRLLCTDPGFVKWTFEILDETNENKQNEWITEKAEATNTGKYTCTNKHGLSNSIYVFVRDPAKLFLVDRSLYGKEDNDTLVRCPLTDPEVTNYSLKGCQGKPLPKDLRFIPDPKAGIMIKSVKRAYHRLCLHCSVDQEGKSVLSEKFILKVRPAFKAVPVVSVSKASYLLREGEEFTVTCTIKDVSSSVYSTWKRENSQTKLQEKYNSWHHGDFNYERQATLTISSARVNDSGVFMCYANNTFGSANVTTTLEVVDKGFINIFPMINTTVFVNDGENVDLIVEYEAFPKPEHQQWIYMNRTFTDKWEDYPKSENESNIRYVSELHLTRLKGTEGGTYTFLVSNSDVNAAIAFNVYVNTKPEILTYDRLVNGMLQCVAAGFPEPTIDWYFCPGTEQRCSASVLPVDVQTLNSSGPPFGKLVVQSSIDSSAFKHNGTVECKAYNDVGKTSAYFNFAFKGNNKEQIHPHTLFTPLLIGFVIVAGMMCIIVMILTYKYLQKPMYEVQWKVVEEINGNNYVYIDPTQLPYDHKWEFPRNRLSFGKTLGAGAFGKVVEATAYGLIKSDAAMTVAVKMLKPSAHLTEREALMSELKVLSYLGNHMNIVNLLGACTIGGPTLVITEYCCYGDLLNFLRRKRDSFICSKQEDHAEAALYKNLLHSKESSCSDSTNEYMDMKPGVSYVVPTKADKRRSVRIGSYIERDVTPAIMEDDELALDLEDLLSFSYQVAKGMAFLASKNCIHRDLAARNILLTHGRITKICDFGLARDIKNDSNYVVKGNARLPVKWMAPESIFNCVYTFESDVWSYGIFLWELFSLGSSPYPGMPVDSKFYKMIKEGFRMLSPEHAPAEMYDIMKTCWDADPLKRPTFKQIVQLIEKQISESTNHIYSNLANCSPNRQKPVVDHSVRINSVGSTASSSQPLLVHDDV
Experiment: summary Table 75 (repeats Table 73)
Reported values of EC50 for individual entries
Give just the numeric value; nM need not be written.

Consider the reported EC50 for these binders:
INSERT INTO results (binder, readout_value) VALUES
  ('ABTx203 (antibody, human IgG1, V domains shown) VH: EVQLVESGGGLVQPGRSLRLSCAASGFTFDDYAMHWVRQAPGKGLEWVSGISWNSGTIGYADSVKGRFTNSRDNAKNSLYLEMNSLRAEDTALYYCAKDWPSGFCSSAYCYGAFDIWGQGTMVTVSS VL: DIVMTQSPSFLSASVGDRVTITCRASQGISSYLAWYQQKPGKAPKLLIYAASTLQNGVPSRFSGSGSGTDFTLTITSLQPEDFATYYCQQSYSTPYTFGQGTKLEIK', 5.56),
  ('ABTx202 (antibody, human IgG1, V domains shown) VH: EVQLVESGGGLVQPGRSLRLSCAASGFTFDDYAMHWVRQAPGKGLEWVSGISWNSGTIGYADSVKGRFTSSRDNAKNSLYLEMNSLRAEDTALYYCAKDSPPGYCSSASCYGAFDIWGQGTMVTVSS VL: EIVMTQSPGTLSLSPGERATLSCRASQSVSSSYLAWYQQKPGQAPRLLIYGSSTRATGIPARFSGSGSGTEFALTISSLQSEDFAVYYCQQYNFWPYTFGQGTKVEIK', 7.98),
  ('ABTx205 (antibody, human IgG1, V domains shown) VH: EVQLVESGGGLVQPGRSLRLSCAASGFTFDDYAMHWVRQAPGKGLEWVSGISWNSGTIGYADSVKGRFTNSRDNAKNSLYLEMNSLRAEDTALYYCAKDSPPGYCSSASCYGAFDIWGQGTMVTVSS VL: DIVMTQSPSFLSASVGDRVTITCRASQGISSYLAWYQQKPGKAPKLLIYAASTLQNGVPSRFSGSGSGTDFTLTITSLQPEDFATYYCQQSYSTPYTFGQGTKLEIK', 7.48),
  ('ABTx196 (antibody, human IgG1, V domains shown) VH: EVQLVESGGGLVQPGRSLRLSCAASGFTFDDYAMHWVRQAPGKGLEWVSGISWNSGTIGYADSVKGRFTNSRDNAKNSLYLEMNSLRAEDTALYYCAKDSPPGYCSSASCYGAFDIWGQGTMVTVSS VL: DVVMTQSPGTLSLSPGERATLSCRASQSVSSSYLAWYQQKPGQAPRLLIYGASSRATGIPDRFSGSGSGTDFTLTISRLEPEDFAVYYCQQSETCLTFGGGTKLEIK', 5.21),
  ('ABTx198 (antibody, human IgG1, V domains shown) VH: EVQLVESGGGLVQPGRSLRLSCAASGFTFDDYAMHWVRQAPGKGLEWVSGISWNSGTIGYADSVKGRFTNSRDNAKNSLYLEMNSLRAEDTALYYCAKDSPPGYCASASCYGAFDIWGQGTMVTVSS VL: DVVMTQSPGTLSLSPGERATLSCRASQSVSSSYLAWYQQKPGQAPRLLIYGASSRATGIPDRFSGSGSGTDFTLTISRLEPEDFAVYYCQQDSLGLTFGGGTKLEIK', 5.42);

Would you kindly look at the next entry?
# query: EC50 of entry ABTx206 (antibody, human IgG1, V domains shown) VH: EVQLVESGGGLVQPGRSLRLSCAASGFTFDDYAMHWVRQAPGKGLEWVSGISWNSGTIGYADSVKGRFTNSRDNAKNSLYLEMNSLRAEDTALYYCAKDSPPGYCSSASCYGAFDIRGQGTMVTVSS VL: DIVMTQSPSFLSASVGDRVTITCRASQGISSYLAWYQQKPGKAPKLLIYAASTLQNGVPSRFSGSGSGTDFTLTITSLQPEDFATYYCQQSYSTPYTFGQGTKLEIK
14.2
